# target.under.test: NR2F6 (Homo sapiens)
# Construct: expressed in transfected cells; also transient transfection
# Sequence (P10588 1-404): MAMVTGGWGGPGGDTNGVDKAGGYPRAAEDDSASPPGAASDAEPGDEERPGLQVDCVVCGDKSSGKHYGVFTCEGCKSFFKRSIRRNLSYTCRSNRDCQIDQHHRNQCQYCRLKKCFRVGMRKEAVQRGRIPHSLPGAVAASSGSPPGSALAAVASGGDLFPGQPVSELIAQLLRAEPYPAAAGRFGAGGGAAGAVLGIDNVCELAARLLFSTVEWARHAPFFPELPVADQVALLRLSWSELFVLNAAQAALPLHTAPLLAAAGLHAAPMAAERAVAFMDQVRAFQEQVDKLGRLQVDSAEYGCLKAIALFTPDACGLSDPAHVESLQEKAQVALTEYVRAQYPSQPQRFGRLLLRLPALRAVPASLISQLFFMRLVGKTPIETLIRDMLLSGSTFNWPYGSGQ
# assay.name: NR2F6 agonist screening, Firefly signal cmpd/DMSO
# Assay type: cell-based
# stated.conditions: 1% FBS; 40 uM
measured.metric: F4, Firefly/Renilla for S/B(F4) > 3

- molecule: "Cc1cccc(CN[C@H]2CS(=O)(=O)C[C@@H]2S(=O)(=O)c2ccc(Cl)cc2)c1 [Compound D127]"
  target.under.test: "NR2F6 (Homo sapiens)"
  F4, Firefly/Renilla for S/B(F4) > 3: 1.9

Let us move to another entry and its F4, Firefly/Renilla for S/B(F4) > 3.
O=S1(=O)C[C@H](NCc2ccco2)[C@@H](S(=O)(=O)c2cccs2)C1 [Compound D135] has a reported F4, Firefly/Renilla for S/B(F4) > 3 of 1.9
